- study-system: PKC-theta (Homo sapiens, UniProt Q04759)
- Construct: His-tag; made in house; host or cells: baculovirus-infected Sf9 cells
- Sequence (Q04759 whole entry): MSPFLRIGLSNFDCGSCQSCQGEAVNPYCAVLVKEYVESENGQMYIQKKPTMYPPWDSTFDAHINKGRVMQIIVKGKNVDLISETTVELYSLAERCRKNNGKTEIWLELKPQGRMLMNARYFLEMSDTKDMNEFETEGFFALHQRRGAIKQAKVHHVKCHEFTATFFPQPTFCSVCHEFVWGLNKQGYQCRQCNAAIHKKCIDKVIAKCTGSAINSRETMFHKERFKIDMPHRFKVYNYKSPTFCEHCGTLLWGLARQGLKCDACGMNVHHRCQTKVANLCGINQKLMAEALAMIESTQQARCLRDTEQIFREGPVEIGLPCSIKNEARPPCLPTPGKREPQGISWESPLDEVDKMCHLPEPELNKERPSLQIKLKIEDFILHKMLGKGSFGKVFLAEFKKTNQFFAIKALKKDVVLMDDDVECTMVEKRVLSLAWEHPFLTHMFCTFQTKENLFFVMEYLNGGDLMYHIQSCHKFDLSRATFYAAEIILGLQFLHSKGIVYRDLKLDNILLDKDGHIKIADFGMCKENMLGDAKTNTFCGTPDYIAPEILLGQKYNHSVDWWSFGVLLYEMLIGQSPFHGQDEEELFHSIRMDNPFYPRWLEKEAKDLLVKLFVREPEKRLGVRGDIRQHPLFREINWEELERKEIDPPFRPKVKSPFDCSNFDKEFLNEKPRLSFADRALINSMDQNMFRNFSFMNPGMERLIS
- assay-remarks: In vitro kinase assay: peptide phosphorylation by PKC-theta
- Type: biochemical
- test-parameters: normalized to best substrate
- Excerpt: A second strategy for validation of the PSSM derived from the methods described herein is to identify sequences represented in the human proteome that have low percentiles derived from the PSSM, to synthesize peptides that have those sequences, and test the efficiency of phosphorylation of those peptides by the kinase of interest. […] The results are shown for individual peptides (FIG. 11, panel A) or for groups of peptides aggregated by percentile prediction (FIG. 11, panel B). […]
This listing pairs substances with measured Measured in vitro phosphorylation by PKC-theta.
metric-name: Measured in vitro phosphorylation by PKC-theta (%)

>  <substance>
191 (HKRNSVRLVIR) [compound 191]

>  <study-system>
PKC-theta (Homo sapiens, UniProt Q04759)

>  <data-value>
38

$$$$
>  <substance>
182 (TKKKRGSYRGGS) [compound 182]

>  <study-system>
PKC-theta (Homo sapiens, UniProt Q04759)

>  <data-value>
61

$$$$
>  <substance>
169 (RTRSRRLTFRK) [compound 169]

>  <study-system>
PKC-theta (Homo sapiens, UniProt Q04759)

>  <data-value>
100

$$$$
>  <substance>
215 (TKKRSKSRSKER) [compound 215]

>  <study-system>
PKC-theta (Homo sapiens, UniProt Q04759)

>  <data-value>
12

$$$$
>  <substance>
199 (RGRRSRSRLRRR) [compound 199]

>  <study-system>
PKC-theta (Homo sapiens, UniProt Q04759)

>  <data-value>
27

$$$$
>  <substance>
175 (KKRRTKSSRRGV) [compound 175]

>  <study-system>
PKC-theta (Homo sapiens, UniProt Q04759)

>  <data-value>
80

$$$$
>  <substance>
203 (VRRSKKSKKKES) [compound 203]

>  <study-system>
PKC-theta (Homo sapiens, UniProt Q04759)

>  <data-value>
24

$$$$
>  <substance>
176 (RRERSRSRRKQ) [compound 176]

>  <study-system>
PKC-theta (Homo sapiens, UniProt Q04759)

>  <data-value>
66

$$$$
>  <substance>
181 (TGERKRKSVRG) [compound 181]

>  <study-system>
PKC-theta (Homo sapiens, UniProt Q04759)

>  <data-value>
62

$$$$
>  <substance>
183 (ARRSKRSRRRET) [compound 183]

>  <study-system>
PKC-theta (Homo sapiens, UniProt Q04759)

>  <data-value>
55

$$$$
>  <substance>
206 (KSSRNSTSVKKK) [compound 206]

>  <study-system>
PKC-theta (Homo sapiens, UniProt Q04759)

>  <data-value>
19

$$$$
>  <substance>
189 (GRRRRSRSKVK) [compound 189]

>  <study-system>
PKC-theta (Homo sapiens, UniProt Q04759)

>  <data-value>
43

$$$$
>  <substance>
208 (VSRPRKSRKRVD) [compound 208]

>  <study-system>
PKC-theta (Homo sapiens, UniProt Q04759)

>  <data-value>
17

$$$$
